Assay: folding enthalpy; higher = less favourable; fluorescence melt of hairpins on a sequencing array, two-state fit
Settings: sodium 0.088 M
experimental readout: folding enthalpy (kcal/mol)
Response body: numeric value in kcal/mol, unit text excluded.

- sequence entry: "GCGAAGATTCGC ((((....))))"
  experimental readout: "folding enthalpy"
  readout unit: "kcal/mol"
  experimental result: -21.8
- sequence entry: "GCGTCGCGAAAGCTAAGC ((.(.((....)).).))"
  experimental readout: "folding enthalpy"
  readout unit: "kcal/mol"
  experimental result: -20.2
- sequence entry: "GCCCCCGAAAGGGCTGGC ((((((....)))..)))"
  experimental readout: "folding enthalpy"
  readout unit: "kcal/mol"
  experimental result: -16.2
- sequence entry: "GTAGAGGGAAACCTCTAC (((((((....)))))))"
  experimental readout: "folding enthalpy"
  readout unit: "kcal/mol"
  experimental result: -54.2
- sequence entry: "GATCAATGGCTTGATC ((((((....))))))"
  experimental readout: "folding enthalpy"
  readout unit: "kcal/mol"
  experimental result: -29
- sequence entry: "GCGGTAGGAAACTGTCGC (((..((....))..)))"
  experimental readout: "folding enthalpy"
  readout unit: "kcal/mol"
  experimental result: -30.3
- sequence entry: "GGAAGGCCGAAAGGCTCC (((..(((....))))))"
  experimental readout: "folding enthalpy"
  readout unit: "kcal/mol"
  experimental result: -11.9
- sequence entry: "GATCTTTGAAAAGATC ((((((....))))))"
  experimental readout: "folding enthalpy"
  readout unit: "kcal/mol"
  experimental result: -29.4
- sequence entry: "GTCGGCCCGAAAGGGGAC (((..(((....))))))"
  experimental readout: "folding enthalpy"
  readout unit: "kcal/mol"
  experimental result: -12.6
- sequence entry: "GGTTCGGGAAACCGGATC (.(.(((....))).).)"
  experimental readout: "folding enthalpy"
  readout unit: "kcal/mol"
  experimental result: -18.3

q: Reported folding enthalpy, sequence GCAATGCGAAAGCTTTGC ((((.((....)).)))) : ____
a: -39.1

q: Item: GCGAACAATCGC ((((....))))
a: -18.3

q: Item: GGGTGTGCGAAAGCACCC (((..(((....))))))
a: -11.3

q: Item: GCGTTCGAAAGAACCGC ((((((....))).)))
a: -23.8

q: Item: GGATACCGAAAGGTCTCC (((.(((....))).)))
a: -25.3

q: Item: GATCCAACGATGGATC ((((((....))))))
a: -34

q: Item: GATCAAGGAAACTCGATC ((((.((....)).))))
a: -17.2

q: Item: TCCGTGAAAACGGA (((((....)))))
a: -18

q: Item: GATCGGTTTCCGATC ((((((...))))))
a: -34.7

q: Item: GCTTTCGAAAGAATTAGC ((((((....)))..)))
a: -15.1

q: Item: GTCGAACGAAAGTTAGAC (((.(((....))).)))
a: -33.1

q: Item: GCGACCTCGAAAGAGCGC (((..(((....))))))
a: -31.1

q: Item: GTTTGACCGAAAGGTAAC (((..(((....))))))
a: -11.6
